Target: NHERF4_1, Q86UT5-2
Sequence (Q86UT5 other isoform, or with tags, fused parts or gaps): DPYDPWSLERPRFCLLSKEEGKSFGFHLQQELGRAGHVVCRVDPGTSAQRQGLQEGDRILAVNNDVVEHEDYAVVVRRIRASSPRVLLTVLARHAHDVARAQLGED
Experiment: holdup assay
Design: key: below the threshold = too weak to quantify, mostly under pKd 3.1 to 4
Conditions: plain residues with an end cap or a label only (N-terminal biotin on a linker: ado-ado)
Rule: pKd under 4 gives Not met, otherwise Met.

PALKNGQYWV [CSPG4, Q6UVK1] | Not met

Prompt: Answer whether pKd of VYEVPVETKF [SLC26A3, P40879] is greater than or equal to 4.
Completion: Not met

Prompt: Answer whether pKd of RGKNRRQSIF [CDK18, Q07002] is greater than or equal to 4.
Completion: Not met

Prompt: Answer whether pKd of SSSVNVSSNL [CXCR1, P25024] is greater than or equal to 4.
Completion: Not met
